Target: KDR (baculovirus expressed human KDR kinase domain D807-V1356) (Homo sapiens, UniProt P35968);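 also: Luciferase-coupled chemiluminescent kinase assay, activity read as percent ATP left after 4 h reaction at ambient temperature, ATP near KM, 10-point dose-response in 384-well plates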
Construct: human KDR kinase domain D807-V1356; host or cells: baculovirus expression
Sequence (P35968 807-1356): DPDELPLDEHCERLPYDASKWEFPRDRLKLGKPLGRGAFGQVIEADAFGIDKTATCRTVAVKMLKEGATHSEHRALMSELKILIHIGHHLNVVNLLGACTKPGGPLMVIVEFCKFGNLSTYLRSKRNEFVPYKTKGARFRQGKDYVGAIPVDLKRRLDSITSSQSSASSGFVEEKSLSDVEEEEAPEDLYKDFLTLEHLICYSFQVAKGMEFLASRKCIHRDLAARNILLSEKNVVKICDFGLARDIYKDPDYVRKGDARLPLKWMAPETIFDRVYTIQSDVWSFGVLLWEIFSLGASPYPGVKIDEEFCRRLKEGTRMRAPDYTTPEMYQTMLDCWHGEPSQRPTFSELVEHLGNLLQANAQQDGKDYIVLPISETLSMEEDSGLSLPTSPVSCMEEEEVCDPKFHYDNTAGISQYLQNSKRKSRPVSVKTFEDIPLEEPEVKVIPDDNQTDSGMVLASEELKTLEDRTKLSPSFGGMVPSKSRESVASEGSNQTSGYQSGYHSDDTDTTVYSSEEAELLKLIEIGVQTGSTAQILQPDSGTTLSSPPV
Assay: biochemical
Settings: Table 4, inhibition as IC50 class
pIC50: −log10 of the molar value.
Exercise: for every item that follows, state its recorded pIC50.

Any idea what pIC50 was measured for COc1cc2c(Oc3ccc(NC(=O)C(=O)NCc4cccc(Cl)c4)cc3F)ccnc2cc1OCC1CCNCC1 ? > 7.30

For COc1ccccc1CNC(=O)C(=O)Nc1ccc(Oc2ccnc3cc(OCC4CCNCC4)c(OC)cc23)c(F)c1 , what is its reported pIC50? > 7.30

What value of measured pIC50 is listed for COc1cc2c(Oc3ccc(NC(=O)C(=O)Nc4ccccc4)cc3F)ccnc2cc1OCC1CCN(C)CC1 ? 6.30 to 7.30

Which pIC50 is listed for COc1cc2c(Oc3ccc(NC(=O)C(=O)NCc4cc(C(F)(F)F)ccc4Cl)cc3F)ccnc2cc1OCC1CCNCC1 ? > 7.30

Find the recorded pIC50 belonging to COc1cc2c(Oc3ccc(NC(=O)C(=O)NCc4ccc(F)c(C(F)(F)F)c4)cc3F)ccnc2cc1OCC1CCNCC1 and report it. > 7.30

GET /values?readout=pIC50&item= COc1cc2c(Oc3ccc(NC(=O)C(=O)NCCc4ccccc4)cc3F)ncnc2cc1OCC1CCNCC1 > 7.30

May I ask what pIC50 has been recorded for COc1cc2c(Oc3ccc(NC(=O)C(=O)NCc4ccccn4)cc3F)ccnc2cc1OCC1CCNCC1 ? 6.30 to 7.30

Quick one: pIC50 for COc1cc2c(Oc3ccc(NC(=O)C(=O)NCCc4ccc(C)cc4)cc3F)ccnc2cc1OCC1CCNCC1 ? 6.30 to 7.30

Could you share which pIC50 value was measured for COc1cc2c(Oc3ccc(NC(=O)C(=O)NCc4cccc(C(F)(F)F)c4F)cc3F)ccnc2cc1OCC1CCNCC1 ? > 7.30

So what does the record say about pIC50 for COc1ccc(CCN(C)C(=O)C(=O)Nc2ccc(Oc3ccnc4cc(OCC5CCNCC5)c(OC)cc34)c(F)c2)cc1OC ? 6.30 to 7.30

Can you share its pIC50? I mean this compound: COc1cc2c(Oc3ccc(NC(=O)C(=O)N[C@@H]4CCCc5ccccc54)cc3F)ccnc2cc1OCC1CCNCC1 6.30 to 7.30

// lookup pIC50 for COc1cc2c(Oc3ncc(NC(=O)CC(=O)Nc4ccc(F)cc4)cc3Cl)ccnc2cc1OCCCN1CCCCC1 6.30 to 7.30

Reported pIC50, compound COc1cc2c(Oc3ccc(NC(=O)C(=O)NCCc4ccccc4)cc3F)ccnc2cc1OCC1CNC1 : ____ > 7.30

Request the reported pIC50 associated with COc1cc2c(Oc3ccc(NC(=O)C(=O)NCc4ccc(Cl)cc4)cc3F)ccnc2cc1OCC1CCNCC1 > 7.30

Item under review: COc1cc2c(Oc3ccc(NC(=O)C(=O)NCc4cccc(F)c4F)cc3F)ccnc2cc1OCC1CCNCC1 . Reported pIC50? > 7.30

Which value of pIC50 has been reported for CCN1CCC(COc2cc3nccc(Oc4ccc(NC(=O)C(=O)N5CCOC(c6ccccc6)C5)cc4F)c3cc2OC)CC1 (stereo not shown) in the records? 6.30 to 7.30

Entry COc1cc2c(Oc3ccc(NC(=O)C(=O)NCCc4ccc(F)cc4)cc3F)ccnc2cc1OCC1CCN(C)CC1 has what pIC50? > 7.30

Which pIC50 is reported for this compound? COc1cc2c(Oc3ccc(NC(=O)C(=O)Nc4cccc(F)c4)cc3F)ccnc2cc1OCC1CCNCC1 5.30 to 6.30

For COc1cc2c(Oc3ccc(NC(=O)C(=O)NCC(O)c4ccccc4)cc3F)ccnc2cc1OCC1CCNCC1 (stereo not shown) , what is its reported pIC50? 6.30 to 7.30

# query: pIC50 of entry COc1ccc(CNC(=O)C(=O)Nc2ccc(Oc3ccnc4cc(OCC5CCN(C)CC5)c(OC)cc34)c(F)c2)cc1 6.30 to 7.30

Please report the recorded pIC50 for COc1cc2c(Oc3ccc(NC(=O)C(=O)NCCc4ccccc4)cc3F)ncnc2cc1OCC1CCN(C)CC1 . > 7.30

Tell me the measured pIC50 of COc1cc2c(Oc3ccc(NC(=O)C(=O)NCc4ccccc4Cl)cc3F)ccnc2cc1OCC1CCNCC1 , please. > 7.30

Which measured pIC50 value corresponds to COc1cc2nccc(Oc3ncc(NC(=O)CC(=O)Nc4ccc(F)cc4F)cc3Cl)c2cc1OC ? 5.30 to 6.30

// returns reported pIC50 for input COc1cc2c(Oc3ccc(NC(=O)C(=O)NCc4ccc(F)c(F)c4)cc3F)ccnc2cc1OCC1CCNCC1 > 7.30

Need pIC50 of COc1cc2nccc(Oc3ccc(NC(=O)C(=O)NCC(c4ccccc4)N(C)C)cc3F)c2cc1OC (stereo not shown) , thanks. 6.30 to 7.30

* * *

Hi there, I'd appreciate the recorded pIC50 for every entry that follows.
Target: c-Kit kinase (Homo sapiens, UniProt P10721)
Sequence (P10721 26-976): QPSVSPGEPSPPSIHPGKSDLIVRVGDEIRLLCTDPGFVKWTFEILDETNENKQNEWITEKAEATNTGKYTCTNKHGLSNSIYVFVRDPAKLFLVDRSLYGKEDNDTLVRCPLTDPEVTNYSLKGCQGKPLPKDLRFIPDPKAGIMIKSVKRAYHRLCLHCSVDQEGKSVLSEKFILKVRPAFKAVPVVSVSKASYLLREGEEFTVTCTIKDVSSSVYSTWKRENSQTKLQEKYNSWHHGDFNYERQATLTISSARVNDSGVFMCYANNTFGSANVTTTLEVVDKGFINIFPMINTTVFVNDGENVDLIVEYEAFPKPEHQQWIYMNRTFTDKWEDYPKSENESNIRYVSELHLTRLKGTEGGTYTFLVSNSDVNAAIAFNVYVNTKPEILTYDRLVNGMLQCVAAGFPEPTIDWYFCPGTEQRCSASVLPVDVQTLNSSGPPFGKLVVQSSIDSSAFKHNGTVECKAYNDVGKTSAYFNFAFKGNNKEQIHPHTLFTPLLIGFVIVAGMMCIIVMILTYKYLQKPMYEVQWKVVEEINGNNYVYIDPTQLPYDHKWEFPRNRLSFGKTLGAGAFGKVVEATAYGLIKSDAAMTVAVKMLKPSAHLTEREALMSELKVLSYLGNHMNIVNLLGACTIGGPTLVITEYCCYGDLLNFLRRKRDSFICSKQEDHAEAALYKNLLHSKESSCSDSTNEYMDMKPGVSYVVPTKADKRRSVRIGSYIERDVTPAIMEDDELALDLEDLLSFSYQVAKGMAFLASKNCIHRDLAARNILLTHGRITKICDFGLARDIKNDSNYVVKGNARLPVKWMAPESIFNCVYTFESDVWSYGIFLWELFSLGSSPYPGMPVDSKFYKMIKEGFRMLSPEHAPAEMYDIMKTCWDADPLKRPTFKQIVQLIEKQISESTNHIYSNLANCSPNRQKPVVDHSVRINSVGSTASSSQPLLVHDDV
Assay: c-Kit AlphaScreen kinase assay
Format: biochemical
Conditions: Table 4, inhibition as IC50 class
pIC50: −log10 of the molar value.

// returns reported pIC50 for input COc1cc2c(Oc3ccc(NC(=O)C(=O)Nc4ccccc4)cc3F)ccnc2cc1OCC1CCN(C)CC1 [Example 259] 5.30 to 6.30

Consider the molecule shown here: COc1cc2c(Oc3ccc(NC(=O)C(=O)NCc4cc(C(F)(F)F)cc(C(F)(F)F)c4)cc3F)ccnc2cc1OCC1CCNCC1 [Example 272] What is its recorded pIC50? 5.30 to 6.30

Give the measured pIC50 of COc1ccc(CNC(=O)C(=O)Nc2ccc(Oc3ccnc4cc(OCC5CCN(C)CC5)c(OC)cc34)c(F)c2)cc1 [Example 247] . > 7.30

Reported pIC50 for CC[C@@H](NC(=O)C(=O)Nc1ccc(Oc2ccnc3cc(OCC4CCNCC4)c(OC)cc23)c(F)c1)c1ccccc1 [Example 254] : what is it? 6.30 to 7.30

Look up pIC50: CCOc1ccc(CCNC(=O)C(=O)Nc2ccc(Oc3ccnc4cc(OCC5CCNCC5)c(OC)cc34)c(F)c2)cc1 [Example 167] 6.30 to 7.30

Recorded pIC50 for COc1cc2c(Oc3ccc(NC(=O)C(=O)NCCc4ccccc4)cc3F)ncnc2cc1OCC1CCN(C)CC1 [Example 276] , please? > 7.30

Which measured pIC50 value corresponds to COc1cc2c(Oc3ccc(NC(=O)C(=O)NCc4ccccn4)cc3F)ccnc2cc1OCC1CCNCC1 [Example 274] ? 6.30 to 7.30

* * *

Please provide measured pIC50 for the entries that follow.
Target: c-Kit kinase (Homo sapiens, UniProt P10721)
Assay: c-Kit AlphaScreen kinase assay;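 also: c-Kit kinase phosphorylating biotinylated poly(Glu,Tyr), ATP near its KM, 1 h reaction at ambient temperature, AlphaScreen chemiluminescence with streptavidin donor and anti-phosphotyrosine acceptor beads, 10-point inhibitor titration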
Assay type: biochemical
Settings: Table 4, inhibition as IC50 class
pIC50: −log10 of the molar value.

Form field: pIC50 recorded for COc1cc2c(Oc3ccc(NC(=O)C(=O)NCc4ccc(OC(F)(F)F)cc4)cc3F)ccnc2cc1OCC1CCNCC1 with c-Kit kinase (Homo sapiens, UniProt P10721) (enter value) 6.30 to 7.30

Provide the documented pIC50 with c-Kit kinase (Homo sapiens, UniProt P10721) as the system for COc1cc2c(Oc3ccc(NC(=O)C(=O)NCC(C)c4ccccc4)cc3F)ccnc2cc1OCC1CCNCC1 (centres unmarked) > 7.30

Request body: readout pIC50, system c-Kit kinase (Homo sapiens, UniProt P10721), query CCN1CCC(COc2cc3nccc(Oc4ccc(NC(=O)C(=O)N5CCOC(c6ccccc6)C5)cc4F)c3cc2OC)CC1 (centres unmarked) . Return the value. 6.30 to 7.30

c-Kit kinase (Homo sapiens, UniProt P10721) / pIC50 / COc1cc2c(Oc3ccc(NC(=O)C(=O)NCCC(C)(C)C)cc3F)ccnc2cc1OCC1CCNCC1 : value? > 7.30

Which pIC50 is reported with c-Kit kinase (Homo sapiens, UniProt P10721) for this entry: COc1cc2c(Oc3ccc(NC(=O)C(=O)NCCc4ccccc4)cc3F)ncnc2cc1OCC1CCNCC1 ? > 7.30

* * *

Provide the recorded IC50 for the entries that follow.
Biological target: Flt-4 (baculovirus expressed human Flt-4 kinase domain D725-R1298) (Homo sapiens)
Construct: human Flt-4 kinase domain D725-R1298; host or cells: baculovirus expression
Sequence (P35916 725-1298 isoform P35916-1): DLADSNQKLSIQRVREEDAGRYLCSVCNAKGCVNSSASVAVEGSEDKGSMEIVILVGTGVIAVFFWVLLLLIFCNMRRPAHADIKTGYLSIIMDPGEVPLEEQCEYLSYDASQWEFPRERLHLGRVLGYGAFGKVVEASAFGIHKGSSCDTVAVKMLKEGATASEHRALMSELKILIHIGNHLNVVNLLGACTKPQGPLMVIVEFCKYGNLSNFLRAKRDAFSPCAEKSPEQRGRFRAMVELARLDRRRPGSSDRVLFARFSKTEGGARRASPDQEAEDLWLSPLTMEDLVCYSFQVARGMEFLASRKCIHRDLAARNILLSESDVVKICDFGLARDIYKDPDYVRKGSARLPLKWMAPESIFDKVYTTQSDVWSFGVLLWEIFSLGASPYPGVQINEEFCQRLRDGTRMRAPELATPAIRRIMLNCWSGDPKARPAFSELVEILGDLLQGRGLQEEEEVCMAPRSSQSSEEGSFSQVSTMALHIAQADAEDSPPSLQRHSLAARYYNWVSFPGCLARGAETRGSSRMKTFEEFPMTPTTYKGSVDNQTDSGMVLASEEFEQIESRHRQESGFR
Assay: flt-4 Alphascreen Tyrosine Kinase assay;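 also: AlphaScreen chemiluminescence read-out of biotinylated poly(Glu,Tyr) 4:1 phosphorylation via streptavidin donor and PY100 anti-phosphotyrosine acceptor beads, ATP near KM, 1 hr kinase reaction, 10-point dose-response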
Format: biochemical
Settings: Table 4, inhibition as IC50 class; read-out: flt4 IC50

Query: IC50; subject: COc1cc2c(Oc3ccc(NC(=O)C(=O)Nc4ccccc4)cc3F)ccnc2cc1OCC1CCN(C)CC1 0.05 to 0.5 µM

Using the record for COc1cc2c(Oc3ccc(NC(=O)C(=O)NCc4ccc(OC(F)(F)F)cc4)cc3F)ccnc2cc1OCC1CCNCC1 , report its IC50. 0.05 to 0.5 µM

What value of IC50 has been reported for the following compound? COc1cc2c(Oc3ccc(NC(=O)C(=O)NCc4cc(Cl)cc(Cl)c4)cc3F)ccnc2cc1OCC1CCNCC1 < 0.05 µM

Name the recorded IC50 for COc1cc2c(Oc3ccc(NC(=O)C(=O)NCc4cccc(F)c4F)cc3F)ccnc2cc1OCC1CCNCC1 . < 0.05 µM

Requested read-out: IC50. Entry: CCN1CCC(COc2cc3nccc(Oc4ccc(NC(=O)C(=O)N5CCOC(c6ccccc6)C5)cc4F)c3cc2OC)CC1 (stereo not shown) 0.05 to 0.5 µM

Could you tell me which IC50 is on file for COc1cc2c(Oc3ccc(NC(=O)C(=O)NCc4ccc(F)c(F)c4)cc3F)ccnc2cc1OCC1CCNCC1 ? < 0.05 µM

Recorded IC50 of COc1cc2c(Oc3ccc(NC(=O)C(=O)NCCC(C)C)cc3F)ccnc2cc1OCC1CCNCC1 , please. 0.05 to 0.5 µM
